Data credit: PubChem BioAssay AID1996

conditions: buffer; pH 7.4; 200.0 µM
recorded metric: solubility kinetic (µg/mL)
Just the number please, in µg/mL, no unit attached.

*Q* Quick one: solubility kinetic for Fc1ccc(C2c3cccn3CCN2C(=S)Nc2cccc(F)c2)cc1 (centres undefined) ?
*A* 5.1

*Q* // solubility kinetic lookup, key: CC(=O)c1ccc(NC(=O)Cc2cccs2)cc1
*A* 37.2

*Q* solubility kinetic lookup needed for CCOC(=O)NC(N(O)c1cccc(Cl)c1)C(Cl)(Cl)Cl (centres undefined) , thanks.
*A* 37.1

*Q* What does the record list as solubility kinetic for CCc1cccc(NS(=O)(=O)c2cccc3cccnc23)c1 ?
*A* 1

*Q* Find the recorded solubility kinetic belonging to CC(C)N(Cc1ccccc1)C(=O)c1ccc2c(c1)OCO2 and report it.
*A* 42.8

*Q* Item CCC(C)Nc1nc(N)c([N+](=O)[O-])c(NCCO)n1 (centres undefined) has what recorded solubility kinetic?
*A* 39.6

*Q* # lookup: solubility kinetic of O=C(Nc1ccncc1)c1ccc([N+](=O)[O-])cc1Cl
*A* 17.6

*Q* Report solubility kinetic for O=C(c1cc([N+](=O)[O-])ccc1N1CCCC1)N1CCCCC1 please.
*A* 25.9

*Q* Could you share which solubility kinetic value was measured for O=C(CN1C(=O)NC(Cc2c[nH]c3ccccc23)C1=O)Nc1ccc(F)cc1F (centres undefined) ?
*A* 19

*Q* Bench note: what solubility kinetic did COCCCn1c(=O)c2sccc2n(Cc2ccccc2)c1=O show?
*A* 49.4
